target: human ether-à-go-go-related gene (hERG) potassium channel (human, UniProt Q12809); experiment: primary screen, population patch clamp on CHO cells stably expressing hERG; higher = less effect of the substance
Sequence (Q12809 whole entry, looked up): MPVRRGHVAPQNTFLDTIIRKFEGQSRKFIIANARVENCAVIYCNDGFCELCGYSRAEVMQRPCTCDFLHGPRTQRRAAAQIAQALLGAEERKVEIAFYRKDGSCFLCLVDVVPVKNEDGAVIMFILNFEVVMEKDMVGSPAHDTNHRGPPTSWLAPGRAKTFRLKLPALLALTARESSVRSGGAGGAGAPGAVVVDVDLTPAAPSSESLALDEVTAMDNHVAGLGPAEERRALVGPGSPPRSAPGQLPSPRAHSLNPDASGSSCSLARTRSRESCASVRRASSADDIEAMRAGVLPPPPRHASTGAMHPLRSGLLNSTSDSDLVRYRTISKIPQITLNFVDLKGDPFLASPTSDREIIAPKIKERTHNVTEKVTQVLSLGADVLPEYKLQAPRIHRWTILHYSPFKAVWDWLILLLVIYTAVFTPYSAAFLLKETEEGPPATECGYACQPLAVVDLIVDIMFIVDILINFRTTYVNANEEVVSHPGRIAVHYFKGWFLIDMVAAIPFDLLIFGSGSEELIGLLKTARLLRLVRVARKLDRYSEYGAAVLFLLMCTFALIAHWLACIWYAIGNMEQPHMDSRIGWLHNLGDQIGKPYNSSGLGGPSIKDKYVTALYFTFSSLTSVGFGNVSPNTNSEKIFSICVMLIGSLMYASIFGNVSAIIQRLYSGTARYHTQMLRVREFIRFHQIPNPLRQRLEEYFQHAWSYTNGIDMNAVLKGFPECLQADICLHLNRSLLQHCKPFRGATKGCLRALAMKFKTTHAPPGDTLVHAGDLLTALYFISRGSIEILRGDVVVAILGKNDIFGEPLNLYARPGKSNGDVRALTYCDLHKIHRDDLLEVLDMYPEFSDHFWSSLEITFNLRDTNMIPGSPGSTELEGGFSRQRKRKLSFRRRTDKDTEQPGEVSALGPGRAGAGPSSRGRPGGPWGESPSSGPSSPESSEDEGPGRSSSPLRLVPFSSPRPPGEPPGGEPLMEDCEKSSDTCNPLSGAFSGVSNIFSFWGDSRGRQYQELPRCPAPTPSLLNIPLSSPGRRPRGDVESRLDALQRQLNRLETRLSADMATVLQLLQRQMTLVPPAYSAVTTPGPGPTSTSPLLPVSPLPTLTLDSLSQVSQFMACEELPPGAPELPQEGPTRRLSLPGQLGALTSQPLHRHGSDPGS
Among all 310,000 compounds or so, about 2,200 (0.71%) showed an effect of 50% or more. The effect is printed as a negative number. The list comes from a sample in which strong results are over-represented; it also holds close analogues and randomly drawn compounds.
Response key: Fulfilled means hERG current change (%, negative = inhibition) at 1uM >= -70%; Not fulfilled means hERG current change (%, negative = inhibition) at 1uM < -70%.

Reference set, count: 3
# compound, group
rows = [
    ("COc1ccc(C)cc1NC(=O)CN1CCN(C/C=C/c2ccccc2)CC1", "Fulfilled"),
    ("O=C(Nc1ccnn1C1CCN(Cc2ccc(OC(F)F)cc2)CC1)C1CCCC1", "Not fulfilled"),
    ("COCCN(C(=O)COC(=O)c1ccc2[nH]c(C)c(C)c2c1)c1c(N)n(Cc2ccccc2)c(=O)[nH]c1=O", "Fulfilled"),
]

*Q* Could you please find out whether COc1ccc(CN2CCC(n3nccc3NC(=O)C3CCCC3)CC2)cc1 has hERG current change (%, negative = inhibition) at 1uM that meets -70% or exceeds it?
*A* Fulfilled

*Q* // same read-out, input: COC(=O)/C=C\C(=O)Nc1cccc([N+](=O)[O-])c1
*A* Fulfilled

*Q* // same read-out, input: O=C(COC(=O)c1ccco1)NCC1CCCO1 (stereo not drawn)
*A* Fulfilled

*Q* Similarly, O=C(COc1ccccc1)Nc1c(C(=O)N2CCC(N3CCCCC3)CC2)oc2ccccc12 ?
*A* Fulfilled

====

Molecular target: human ether-à-go-go-related gene (hERG) potassium channel (human, UniProt Q12809)
Assay: primary screen, population patch clamp on CHO cells stably expressing hERG; higher = less effect of the substance
From the text: Briefly, Chinese hamster ovary (CHO) cells stably expressing the hERG channel were dislodged from tissue culture flasks and dispensed into PPC plates. […] Small molecule effects on hERG current density were quantified by […].
About 2,200 (0.71%) of roughly 310,000 compounds showed an effect of 50% or more. Effects have a minus sign here. This excerpt belongs to a sample that is enriched for strong results.
measured.quantity: hERG current change (%, negative = inhibition) at 1uM (%)
Write down the numeric answer in % and omit the unit.

The examples below pair each entry with its known result.
# molecule, unit.text, reading
measured = [
    ("Cc1ccccc1NC(=O)N1CCN(C/C=C/c2ccccc2)CC1", "%", 11),
    ("CCN1CCN(c2ccc([N+](=O)[O-])cc2C(=O)c2ccc(Cl)cc2)CC1", "%", -58.3),
    ("O=C(NCCCN1CCCC1=O)c1cccc(NS(=O)(=O)c2ccccc2)c1", "%", 13.4),
    ("O=C(Nc1ccc(F)cc1F)N1CCN(C/C=C/c2ccccc2)CC1", "%", -15.3),
    ("O=C(NCc1ccco1)C(NS(=O)(=O)c1cccc2nsnc12)c1ccccc1 (stereo not drawn)", "%", 7.81),
    ("COc1ccc(NC(C)=O)cc1S(=O)(=O)N1CCN(C/C=C/c2ccccc2)CC1", "%", -48.1),
    ("O=C(COC(=O)Cc1ccsc1)Nc1cccc(Cl)c1", "%", 0.601),
    ("O=C(CCN1CCN(C/C=C/c2ccccc2)CC1)Nc1ccccc1F.O=C(O)C(=O)O", "%", -81.2),
    ("CCOc1ccccc1N(CC(=O)Nc1ccccc1C(=O)NCc1ccco1)S(C)(=O)=O", "%", 2.08),
    ("COC(C(=O)Nc1ccc(S(=O)(=O)Nc2ccc(C)c(C)c2)cc1)c1ccccc1 (stereo not drawn)", "%", 1.3),
]

*Q* # returns recorded hERG current change (%, negative = inhibition) at 1uM (system: human ether-à-go-go-related gene (hERG) potassium channel (human, UniProt Q12809)) for Cc1ccc(NC(=O)c2cc(NC(=O)CCC(=O)O)ccc2N2CCCCC2)cc1
*A* 11.9

*Q* And what about the molecule Cc1ccccc1NC(=O)CCN1CCN(C/C=C/c2ccccc2)CC1 ?
*A* -72

*Q* Next up: CCCCN(CC)Cc1c(C)[nH]c2c(ccc3ccccc32)c1=O
*A* -49.6

*Q* And N#Cc1ccc(CN2CCN(CC(=O)Nc3ccccc3C(=O)NC3CC3)CC2)cc1 ?
*A* -87.4

*Q* Next molecule: COc1ccc(S(=O)(=O)N2CCN(C/C=C/c3ccccc3)CC2)cc1NC(C)=O
*A* -54.2

====

Molecular target: human ether-à-go-go-related gene (hERG) potassium channel (human, UniProt Q12809)
Assay: primary screen, population patch clamp on CHO cells stably expressing hERG; higher = less effect of the substance
Description: Briefly, Chinese hamster ovary (CHO) cells stably expressing the hERG channel were dislodged from tissue culture flasks and dispensed into PPC plates. […] Small molecule effects on hERG current density were quantified by […].
Hit rate of the full screen: of about 310,000 compounds, about 2,200 (0.71%) showed an effect of 50% or more. The effect is printed as a negative number. Many of the other results were omitted from the sample, so strong results are more common in it than they were.
In this section, each of the compounds is paired with its reported hERG current change (%, negative = inhibition) at 1uM.
Please state the figure in %; there is no need to write the unit.

Sample records with hERG current change (%, negative = inhibition) at 1uM:
# compound, reading
measured = [
    ("COc1ccc(-n2ccnc(SCC(=O)NC3CCCC3)c2=O)cc1", -4.46),
    ("CC(Sc1nnc(C2CC2)n1C1CC1)C(=O)N(C)Cc1cccc(F)c1 (stereo not shown)", -2.8),
]

*Q* Looking for the measured hERG current change (%, negative = inhibition) at 1uM of CCCCCC(=O)N1CCN(CCN=CC2=C(O)CC(c3ccco3)CC2=O)CC1 (stereo not shown) , can you help?
*A* -74.7

*Q* Follow-up item: CCOC(=O)c1[nH]c2ccc(Br)cc2c1NC(=O)CCN1CCC(C)CC1
*A* -36.9

*Q* // same read-out, input: COC(=O)c1[nH]c2ccccc2c1NC(=O)C(C)N1CCOCC1 (stereo not shown)
*A* 9.91

*Q* Check COC(=O)c1[nH]c2ccc(Cl)cc2c1NC(=O)CCN1CCN(C2CCCCC2)CC1 too.
*A* -69.5

*Q* Same question, COC(=O)c1[nH]c2ccc(Br)cc2c1NC(=O)CN1CCN(C2CCCCC2)CC1 this time
*A* -85.1

*Q* Ok, now CCC(=O)N1CCN(CCN=CC2=C(O)CC(c3cccs3)CC2=O)CC1 (stereo not shown)
*A* 9.17

*Q* Follow-up item: Cc1ccc(N2C(=O)C(CN3CCCCC3)C2c2ccccc2)cc1 (stereo not shown)
*A* -4.6

====

The following compounds are shown together with reported hERG current change (%, negative = inhibition) at 1uM values.
molecular target: human ether-à-go-go-related gene (hERG) potassium channel (human, UniProt Q12809); assay: primary screen, population patch clamp on CHO cells stably expressing hERG; higher = less effect of the substance
Among all 310,000 compounds or so, about 2,200 (0.71%) showed an effect of 50% or more. Effects have a minus sign here. The sample as a whole holds a higher share of strong results than the screen did.
Write the answer as a number in %, unit excluded.

# compound, reading
measured = [
    ("COCCCNC(=O)CN(c1cc(Cl)cc(Cl)c1)S(C)(=O)=O", 8.12),
]

*Q* Could you share what hERG current change (%, negative = inhibition) at 1uM was measured for CC(=O)c1ccc(NC(=S)Nc2cccc(Cl)c2C)cc1 , tested on human ether-à-go-go-related gene (hERG) potassium channel (human, UniProt Q12809)?
*A* 12.3

*Q* Next entry: Cc1occc1-c1nnc(SCC(=O)NC2CCCC2)n1-c1ccccc1
*A* 0.492

*Q* Request: O=C(Nc1ccc(S(=O)(=O)NC2CCCCC2)cc1)c1ccc(Br)o1
*A* 1.61

*Q* What do you get for CCN(CC)CCN(Cc1cc2cc(C)ccc2[nH]c1=O)C(=S)Nc1ccccc1 ?
*A* -23.4

*Q* Try this compound too: Cl.Nc1c2c(nc3ccccc13)CCCC2
*A* -12.6

*Q* Next compound up: CCOC(=O)/C(=C/Nc1ccc(F)c(F)c1)[N+](=O)[O-]
*A* 13

*Q* Next: CCCc1[nH]n(-c2ccc([N+](=O)[O-])cc2)c(=O)c1C=NCCCn1ccnc1
*A* -50.1

*Q* // repeat for CCCn1c(SCC(=O)Nc2nonc2C)nnc1-c1ccoc1C and report
*A* 5.83

====

hERG current change (%, negative = inhibition) at 1uM values by entry
Molecular target: human ether-à-go-go-related gene (hERG) potassium channel (human)
Test: primary screen, population patch clamp on CHO cells stably expressing hERG; higher = less effect of the substance
Excerpt: Briefly, Chinese hamster ovary (CHO) cells stably expressing the hERG channel were dislodged from tissue culture flasks and dispensed into PPC plates. […] Small molecule effects on hERG current density were quantified by […].
In all, about 310,000 compounds went through this assay and about 2,200 (0.71%) showed an effect of 50% or more. The effect is printed as a negative number. What follows is part of a selection rich in strong results, with near analogues and random picks from the rest.
Field format: number, assumed %, no unit text.

Answered cases to consult:
# molecule, reading
rows = [
    ("Cc1ccc(C(=O)N/C(=C\\c2ccc(-c3ccccc3[N+](=O)[O-])o2)C(=O)NCCCN2CCOCC2)cc1", -11.2),
    ("CCc1cc(C(c2ccc(F)cc2)N2CCOCC2)c(NC(=O)c2ccccc2)s1 (stereo not shown)", 11.2),
    ("Cc1ccc(C(=O)N/C(=C\\c2ccc(-c3cccc([N+](=O)[O-])c3)o2)C(=O)NCCCN(C)C)cc1", -27.5),
    ("O=C(NCc1ccc(OC(F)(F)F)cc1)C1CC2Cn3c(nc4ccccc43)C2N1c1ccccc1 (stereo not shown)", -15.8),
    ("CCOC(=O)c1ccc2c(c1)n(CCCS(=O)(=O)[O-])c(/C=C/c1ccc(Cl)cc1)[n+]2CC", -7.29),
    ("COCC(=O)N1CCC(Oc2ccc(C(=O)NCc3cnc(C)cn3)cc2)CC1", 13),
]

*Q* Hello, I am looking for reported hERG current change (%, negative = inhibition) at 1uM with human ether-à-go-go-related gene (hERG) potassium channel (human) for CN(C)CCNC(=O)/C(=C/c1ccc(-c2cccc([N+](=O)[O-])c2)o1)NC(=O)c1ccccc1 . Could you help?
*A* -37.2

*Q* Entry CC(C)(C)Sc1ccc([N+](=O)[O-])cc1C(=O)Nc1ccncc1 please
*A* 0.86

*Q* Field entry: CCn1c(/C=C/Nc2ccccc2)[n+](CC)c2ccc(C(=O)OCC(F)(F)F)cc21.[I-]
*A* -90.5

*Q* Can you handle CCCCNC(=O)C1CCCN(S(=O)(=O)c2ccc(S(=O)(=O)NCC(C)C)cc2)C1 (stereo not shown) next?
*A* -3.36

*Q* Try this molecule next: O=C(NCCCO)/C(=C/c1ccc(-c2cccc([N+](=O)[O-])c2)o1)NC(=O)c1ccccc1
*A* -4.53

*Q* Same for O=C(CN1C(=O)CCSc2ccccc21)Nc1ccc2c(c1)OCO2
*A* -4.53

*Q* Same lookup for CC(C)CC(=O)C1CCCN(C(=O)c2ccc3oc(Cc4ccccc4)nc3c2)C1 (stereo not shown) , please.
*A* 11.9
